# system: Estrogen receptor (Homo sapiens)
# experiment-notes: qHTS assay to identify small molecule antagonists of the estrogen receptor alpha (ER-alpha) signaling pathway (AID 743069)
# experimental-setup: HEK293 ER-alpha-UAS-bla, beta-lactamase ratio, antagonist mode; series mostly up to 69.4 µM
Inconclusive results are not listed. Active and inactive are the calls of the source. Calls come from the whole dose curve; as a rule, active = well fitted curve in the direction sought with a large enough effect in the signal ratio in the repeat runs (not every such curve was filed as active); inconclusive = weak or mixed curves, or effect the other way; inactive = no such curve, though single readings can be large or run the other way; the % refers to the signal ratio.

molecule: Cc1nc(-c2ccccn2)ncc1C(=O)Nn1cc(C)c2cc(F)ccc21
system: Estrogen receptor (Homo sapiens)
outcome: inactive
--
molecule: COc1ccc(S(=O)(=O)Nc2nnc(CC(C)C)s2)cc1
system: Estrogen receptor (Homo sapiens)
outcome: inactive
--
molecule: CCN(CC)CCNC(=O)COc1ccc(Cl)cc1
system: Estrogen receptor (Homo sapiens)
outcome: inactive
--
molecule: CC(C)OC(C)C
system: Estrogen receptor (Homo sapiens)
outcome: inactive
--
molecule: COc1ccccc1OCC(O)COC(N)=O (stereo not drawn)
system: Estrogen receptor (Homo sapiens)
outcome: inactive
--
molecule: C[C@]12C(=O)OC(=O)[C@H]1[C@H]1C=C[C@@H]2C1
system: Estrogen receptor (Homo sapiens)
outcome: inactive
--
molecule: CN1CCN(c2c(F)cc3c(=O)c(C(=O)O)cn4c3c2SCC4)CC1
system: Estrogen receptor (Homo sapiens)
outcome: inactive
--
molecule: CCCOCCC
system: Estrogen receptor (Homo sapiens)
outcome: inactive
--
molecule: OCCN(CCO)CCN(CCO)CCO
system: Estrogen receptor (Homo sapiens)
outcome: inactive
--
molecule: Nc1cccc(S(=O)(=O)O)c1
system: Estrogen receptor (Homo sapiens)
outcome: inactive
--
molecule: Cc1ccsc1C(=CCCN1CCC[C@@H](C(=O)O)C1)c1sccc1C
system: Estrogen receptor (Homo sapiens)
outcome: inactive
--
molecule: CC(C)O
system: Estrogen receptor (Homo sapiens)
outcome: inactive
--
molecule: O=C1N(c2ccccc2)c2ccccc2C1(Cc1ccncc1)Cc1ccncc1
system: Estrogen receptor (Homo sapiens)
outcome: inactive
